Listed compounds paired with reported pEC50
target of assay: human GPR40 (Homo sapiens, UniProt O14842)
Sequence (O14842 whole entry): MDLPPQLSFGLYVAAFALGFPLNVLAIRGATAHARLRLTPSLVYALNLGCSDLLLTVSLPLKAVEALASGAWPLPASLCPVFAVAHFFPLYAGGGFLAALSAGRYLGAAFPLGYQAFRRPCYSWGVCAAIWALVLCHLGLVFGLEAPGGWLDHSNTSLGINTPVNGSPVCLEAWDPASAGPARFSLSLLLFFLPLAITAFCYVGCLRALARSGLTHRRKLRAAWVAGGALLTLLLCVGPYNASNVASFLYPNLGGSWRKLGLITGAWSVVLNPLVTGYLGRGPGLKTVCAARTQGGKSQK
test method notes: Cell-based aequorin assay
condition info: CHO cells stably transfected with GPR40 and aequorin; 0.01% HSA; aequorin luminescence; read-out: Relative EC50
pEC50: −log10 of the molar value.

Past entries and their recorded results:
CC#C[C@@H](CC(=O)O)c1ccc(OC2CCc3c(Br)cccc32)cc1 (some centres unmarked)
7.00 to 8.00
CC#C[C@@H](CC(=O)O)c1ccc(OC2CCc3ccc(-c4cc(C)ccc4OCCCC)cc32)cc1 (some centres unmarked)
7.00 to 8.00
CCc1cc2c(cc1COc1ccc([C@H](CC(=O)O)c3nccn3C)cc1)C(C)(C)CCC2(C)C
6.00 to 7.00
CC#C[C@H](CC(=O)O)c1ccc(OC2CCc3cc(-c4ccc5c(c4)OCO5)ccc32)cc1 (some centres unmarked)
< 5.00

For this compound ( `Cn1ncnc1[C@@H](CC(=O)O)c1ccc(OCc2ccc3c(c2)C(C)(C)CCC3(C)C)cc1` ), measured pEC50 is 6.00 to 7.00

The reported value for O=C(O)CC(c1ccc(F)cc1)c1ccc(OC2CCc3cc(Br)ccc32)cc1 (racemic) in terms of pEC50 is 6.00 to 7.00

# pEC50 (compound: CC#C[C@@H](CC(=O)O)c1ccc(OC2CCc3cc(C#N)ccc32)cc1 (some centres unmarked) ) is 7.00 to 8.00

// pEC50 value for O=C(O)CC(c1ccc(OC2Cc3ccccc3C2)cc1)c1cccs1 (racemic) : 6.00 to 7.00
